- Tested on: NMP53^−/− cells
- experimentNotes: Colony formation assay on NMP53^−/− cells
- Format: cell-based, murine
- setupConditions: Mus musculus, 120 h, colony formation assay, 5 days; read-out: EC (NMP53^−/−)
Listed below: minimal effective concentration values for each entry.
readout: minimal effective concentration (µM)

INSERT INTO assay_data (compound, readout, resultunits, endpointresult) VALUES
  ('Cn1cc(-c2ccc(CNc3ccc(F)c(NC(=O)CCc4ccco4)c3)cc2)cn1', 'minimal effective concentration', 'µM', 0.031),
  ('O=C(CCc1ccco1)Nc1cc(NCc2ccc(-c3cn[nH]c3)cc2)ccc1F', 'minimal effective concentration', 'µM', 0.125),
  ('Cn1cc(-c2ccc(CNc3ccc(F)c(NC(=O)CCc4ccsc4)c3)cc2)cn1 [Compound 107p]', 'minimal effective concentration', 'µM', 0.062),
  ('Cn1ncc(-c2ccc(CNc3ccc(F)c(NC(=O)CCc4ccco4)c3)cc2)c1N', 'minimal effective concentration', 'µM', 0.125);
